Test system: 033 T PDX cells
Test: In vitro drug sensitivity assay (ATPlite cell viability, 6 days, sphere culture)
Format: cell-based, human
Details: Homo sapiens, primary culture in serum-free sphere conditions, resistant if IC50 > 1000 nmol/L
pIC50: −log10 of the molar value.
Decide using pIC50: a value greater than or equal to 6 is 1, a smaller one is -1.

• CS(=O)(=O)CCNCc1ccc(-c2ccc3ncnc(Nc4ccc(OCc5cccc(F)c5)c(Cl)c4)c3c2)o1 = -1
• Nc1cc(C(F)(F)F)c(-c2cc(N3CCOCC3)nc(N3CCOCC3)n2)cn1 = 1
• C=CC(=O)Nc1cc2c(Nc3ccc(F)c(Cl)c3)ncnc2cc1OCCCN1CCOCC1 = 1
